This listing pairs binders with measured pEC50.
- TARGET OR SYSTEM: GST-HttExon1Q21 (recombinant huntingtin exon 1 protein with 21 polyQ repeats fused to an N-terminal GST tag) (;human, UniProt P08515 1-218 = GST; P42858 1-88)
- Sequence (P08515 1-218, tags or fused parts left off): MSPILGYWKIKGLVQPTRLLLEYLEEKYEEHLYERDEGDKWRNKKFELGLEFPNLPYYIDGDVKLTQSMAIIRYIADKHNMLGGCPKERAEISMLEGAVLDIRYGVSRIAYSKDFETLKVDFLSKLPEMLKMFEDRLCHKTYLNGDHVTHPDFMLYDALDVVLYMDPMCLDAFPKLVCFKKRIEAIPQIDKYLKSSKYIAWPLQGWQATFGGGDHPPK
- MEASUREMENT DESCRIPTION: ELISA
# log scale: pEC50 equals minus log10 of the concentration in mol/L

Solved cases (7 shown):
BINDER: NI-302.2A2 (antibody, V domains shown) VH: EVQLVESGGGLVQPGGSLRLSCAASGFTFSTYWMNWVRQAPGKGLEWVANIKPDGSDKYYVDSVKGRFTISRDNAKNSLYLQMNSLRDEDTAVYYCARGDGSGWNVYWGQGTLVTVSS VL: DIQMTQSPDSLAVSLGERATINCKSSQSLLYTSKNKDSKNYLGWYQQKPGQPPKLLIYWASTRESGVPDRFSGSGSGTDFTLTISSLQAEDVAVYYCQQYYTTPQFGGGTKVEIK
pEC50: 8.00

BINDER: NI-302.12H2 (antibody, V domains shown) VH: EVQLVQSGGGLVQPGGSLRLSCEASGFTFSNYAMGWVRQAPGKGLEWVSVISGTGGSTYYADSVKGRFTISRDNSMNTLYLQMNSPRADDTAVYYCAKDLRKISGPLYYYGMDVWGQGTTVTVSS VL: EIVLTQSPGTLSLSPGERATLSCRASQSVSSGYLAWYQQKPGQAPRLLIYGASTRATGIPDRFSGSGSGTDFTLTISRLEPEDFAVYYCQHYGASSYTFGQGTKLEIK
pEC50: 10.40

BINDER: NI-302.15E8 (antibody, V domains shown) VH: EVQLVESGGGLIQPGGSLRLSCAVSGFTVSSYSMNWVRQAPGKGLEWVSYTSSSRSNTKKYADSVKGRFTISRDNARNSLYLQMNSLRDEDTAVYYCARAGDFGELLTGEGYYGMDVWGQGTTVTVSS VL: SYELTQPPSVSVSPGQTATITCSGDELGDKYVGWYQQKPGQSPLLVIYQDAKRPSGIPERFSGSNSGNTATLTISGTQAMDEADYYCQAWDSGTMVFGGGTRLTVL
pEC50: 8.03

BINDER: NI-302.8M1 (antibody, V domains shown) VH: EVQLVQSGAEVKKPGASVKVSCKASGYTFTIYYMHWVRQAPGQGLEWMGGISPSGAHTMYAQNFQGRVTVTRDTSTSTVYMELSSLRSEDTAVYYCARGSTVTNYRPFDYWGQGTLVTVSS VL: DIQMTQSPSSLSASVGDRVTITCRASQDISNYLAWYQQKPGKVPKLLIFAASTLQSGVPSRFGGSGSGTDFTLTISSLQPEDVATYYCQNYNSGPPPFGPGTKVDIK
pEC50: 11.70

BINDER: NI-302.64E5 (antibody, V domains shown) VH: EVQLVETGGGLVKPGGSLRLSCAASGFTFDQAWMSWVRQVPGKGLEWVGRIKTKTEGEATDYAAPVRGRFTISRDDSEDTVFLQMNSLKTEDTALYYCTSTGVLAAAVDVYWGQGTLVTVSS VL: DIQLTQSPDSLAVSLGERATMTCKSSQSLFYSYNNENYLAWYQQRPGQPPKLLIYWASTRESGVPDRFSGSGSGTDFTLTISSLQAEDVAVYYCQQYYSTPQTFGQGTKVDIK
pEC50: 8.85

BINDER: NI-302.35C1 (antibody, V domains shown) VH: EVQLVESGGNLVQPGGSLRLSCTASGFTFSITALSWVRQAPEKGPQWVSAITGNAYGTYYADSVKGRFTISRDNAKNTLYLQMNGLRAEDTAIYYCVKGIASDSSGYSAFWGPGTLVTVSS VL: EIVLTQSPATLSLSPGERATLSCRASQSVDNQFAWYQQKPGQAPRLLIYDASRRAPGIPDRFSGSGSGTDFTLTISSLEPEDFAIYYCQHRYTWLYTFGQGTRLEIK
pEC50: 8.34

BINDER: NI-302.15D3 (antibody, V domains shown) VH: EVQLVESGGDLVQPGGSLRLSCAASGFTFSSYWMHWVRQAPGKGLVWVSRISNDGSSKTYADSVKGRFTISRDNAKNTLYLQMNSLRAEDTAVYYCAILGGYCSSTSCRPFDNWGQGTLVTVSS VL: QSALTQPASVSGSPGQSITISCTGTSSDVGVYNYVSWYQQHPGKAPKLMIFDVSNRPSGISNRFSGSKSGNTASLTISGLQAEDEADYYCSSYTSSDTWVFGGGTKLTIL
pEC50: 8.38

Now for another entry.
Exercise: Read the entry NI-302.6N9 (antibody, V domains shown) VH: EVQLVESGGDLVQPGGSLRLSCVVSGFTFSSYAMTWVRQAPGKGLAWVSTISATGGSTFYTDSVRGRFTISRDNSKNTLYLQMNSLRTDDTAIYYCVKDLFGVDTSYYGMDVWGQGTTVTVSS VL: EIVLTQSPGTLSLSPGERATLSCRPSQSVSGRYVAWYQQKPGQAPRLLFYAASNRAIGIPDRFSGSGSGTDFTLTISRLEPEDFAVYYCQHYGASSYTFGPGTKVDIK and write its reported pEC50.
Solution: 9.62
